These data points were gathered from ChEMBL document CHEMBL1141936.

Target: Cyclin-dependent kinase 2 (Homo sapiens, UniProt P24941)
pIC50: −log10 of the molar value.
EXPERIMENTAL_READOUT: pIC50

Request: State, for Cyclin-dependent kinase 2 (Homo sapiens, UniProt P24941), measured pIC50 of the compound listed here: NC1=NONC1N1N=NC(c2nnc(-c3ccncc3)[nH]2)C1CN1CCCCC1 (stereo unspecified)
Response: < 3.60
